- assay_target: T1, NCR3 on cell (on-cell binding in the affinity-maturation table) (human, UniProt O14931 19-201, limits assumed)
- T1 construct: On cell
- T1 sequence (looked up): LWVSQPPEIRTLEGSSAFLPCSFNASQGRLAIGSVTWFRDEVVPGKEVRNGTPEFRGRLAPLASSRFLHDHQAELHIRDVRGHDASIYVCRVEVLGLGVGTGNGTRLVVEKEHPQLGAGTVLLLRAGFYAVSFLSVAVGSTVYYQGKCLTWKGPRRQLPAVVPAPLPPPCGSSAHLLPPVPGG
- test_details: on-cell binding, Fab on NCR3
measure_name: EC50 (nM)

[
  {
    "binder": "NCR3.18.10 (Fab, V domains shown, substitutions derived against parental HC3) VH: EVQLVESGGGLVQPGGSLRLSCAASGFNVSSSSIHWVRQAPGKGLEWVASISSSSGSTSYADSVKGRFTISADTSKNTAYLQMNSLRAEDTAVYYCARRKSSYYMSYYDSFYYAGMDYWGQGTLVTVSS VL: DIQMTQSPSSLSASVGDRVTITCRASQSVSSAVAWYQQKPGKAPKLLIYSASSLYSGVPSRFSGSRSGTDFTLTISSLQPEDFATYYCQQSSSSLITFGQGTKVEIKR",
    "recorded_value": 4.09
  },
  {
    "binder": "NCR3.18.12 (Fab, V domains shown, substitutions derived against parental HC3) VH: EVQLVESGGGLVQPGGSLRLSCAASGFNVSSSSIHWVRQAPGKGLEWVASISSSSGSTSYADSVKGRFTISADTSKNTAYLQMNSLRAEDTAVYYCARRRASYYKTYYDSFYYAGMDYWGQGTLVTVSS VL: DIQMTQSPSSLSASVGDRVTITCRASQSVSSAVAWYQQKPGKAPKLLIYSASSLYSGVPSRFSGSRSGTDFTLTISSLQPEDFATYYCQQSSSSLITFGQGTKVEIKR",
    "recorded_value": 2.13
  },
  {
    "binder": "NCR3.18.6 (Fab, V domains shown, substitutions derived against parental HC3) VH: EVQLVESGGGLVQPGGSLRLSCAASGFNVSSSSIHWVRQAPGKGLEWVASISSSSGSTSYADSVKGRFTISADTSKNTAYLQMNSLRAEDTAVYYCARRISSSYMSYYDSFYYAGMDYWGQGTLVTVSS VL: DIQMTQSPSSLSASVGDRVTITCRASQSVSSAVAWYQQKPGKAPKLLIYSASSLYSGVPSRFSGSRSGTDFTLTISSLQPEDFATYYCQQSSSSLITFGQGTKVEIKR",
    "recorded_value": 4.67
  },
  {
    "binder": "NCR3.18.8 (Fab, V domains shown, substitutions derived against parental HC3) VH: EVQLVESGGGLVQPGGSLRLSCAASGFNVSSSSIHWVRQAPGKGLEWVASISSSSGSTSYADSVKGRFTISADTSKNTAYLQMNSLRAEDTAVYYCARRISSYYVSYYDSFYYAGMDYWGQGTLVTVSS VL: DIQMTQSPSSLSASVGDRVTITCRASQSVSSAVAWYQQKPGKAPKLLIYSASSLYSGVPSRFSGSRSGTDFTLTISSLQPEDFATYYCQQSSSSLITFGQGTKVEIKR",
    "recorded_value": 2.74
  }
]

The reported measurements were obtained from patent US20240279331A1.
